# Tested on: SULT2A1
# assayDetails: SULT2A1 enzyme activity assay: sulfate conjugation of DHEA with 35S-PAPS, COS-1 cytosol preparations of recombinant allozymes
# Format: biochemical, human
# runParameters: percentage of WT SULT2A1 enzyme activity; 5 μM DHEA, 0.4 μM 35S-PAPS; COS-1 cytosol; corrected for transfection efficiency
measurementKind: Enzyme Activity (%)
Please state the figure in %; there is no need to write the unit.

>>> valuemeasured("Lys227Glu: SULT2A1 allozyme having a glutamate at amino acid residue 227 in place of a lysine (protein, UniProt Q06520 1-285, looked up, variant K227E) Sulfotransferase 2A1: MSDDFLWFEGIAFPTMGFRSETLRKVRDEFVIRDEDVIILTYPKSGTNWLAEILCLMHSKGDAKWIQSVPIWERSPWVESEIGYTALSETESPRLFSSHLPIQLFPKSFFSSKAKVIYLMRNPRDVLVSGYFFWKNMKFIKKPKSWEEYFEWFCQGTVLYGSWFDHIHGWMPMREEKNFLLLSYEELKQDTGRTIEKICQFLGKTLEPEELNLILKNSSFQSMKENEMSNYSLLSVDYVVDKAQLLRKGVSGDWKNHFTVAQAEDFDKLFQEKMADLPRELFPWE")
15
>>> valuemeasured("63Pro/261Thr: SULT2A1 polypeptide with a proline at position 63 and a threonine at position 261 (double variant) (protein, UniProt Q06520 1-285, looked up, variant A63P A261T) Sulfotransferase 2A1: MSDDFLWFEGIAFPTMGFRSETLRKVRDEFVIRDEDVIILTYPKSGTNWLAEILCLMHSKGDPKWIQSVPIWERSPWVESEIGYTALSETESPRLFSSHLPIQLFPKSFFSSKAKVIYLMRNPRDVLVSGYFFWKNMKFIKKPKSWEEYFEWFCQGTVLYGSWFDHIHGWMPMREEKNFLLLSYEELKQDTGRTIEKICQFLGKTLEPEELNLILKNSSFQSMKENKMSNYSLLSVDYVVDKAQLLRKGVSGDWKNHFTVTQAEDFDKLFQEKMADLPRELFPWE")
42

Note: attention shifts to another entry.
Name the reported Enzyme Activity (%) value associated with the molecule Ala63Pro: SULT2A1 allozyme having a proline at amino acid residue 63 in place of alanine (protein, UniProt Q06520 1-285, looked up, variant A63P) Sulfotransferase 2A1: MSDDFLWFEGIAFPTMGFRSETLRKVRDEFVIRDEDVIILTYPKSGTNWLAEILCLMHSKGDPKWIQSVPIWERSPWVESEIGYTALSETESPRLFSSHLPIQLFPKSFFSSKAKVIYLMRNPRDVLVSGYFFWKNMKFIKKPKSWEEYFEWFCQGTVLYGSWFDHIHGWMPMREEKNFLLLSYEELKQDTGRTIEKICQFLGKTLEPEELNLILKNSSFQSMKENKMSNYSLLSVDYVVDKAQLLRKGVSGDWKNHFTVAQAEDFDKLFQEKMADLPRELFPWE
57
